- Tested on: K. pneumoniae (ATCC 43816)
- assay_explanation: microbe, parasite or virus in culture
- Assay type: cell-based, Klebsiella pneumoniae
- condition_details: planktonic K. pneumoniae ATCC 43816; lowest concentration killing 99.9% of inoculum; read-out: MBC
Bridge positions count the residues as written; N and C are the ends. Ends that are not written are not given here.
measured_property: MBC (µM)
Report as a plain number; the unit µM is understood.

Which MBC value is on record for GLLSGVLGAGKKIVGLSGRC [Peptide 1885-C] ?
128

Quick one: MBC of GLLRGVLGAGKKIVCGLSGRC (disulfide 15-21 (inferred)) [Peptide 2057-C, N-terminus modified analogue of Nigrosin-6VL] ?
128

Dear colleague, I am looking for the recorded MBC of the following substance: GLLSGVLGAGKKIVCGLSGR- [Peptide 1885-R, Rana Box modified analogue of Nigrosin-6VL]
64

Quick one: MBC for GLLSGVLGAGKKIVAGLSGRA [Peptide 1924-A] ?
128

Data provenance: paper PMC11274128
